Quick list: normalized growth per entry.
Assay: chemical genetic growth profiling, strain panel (AID 1159580);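 note: tested at 20 µM; growth read once vehicle control cultures reached saturation at 30 °C; 1 = growth at the plate median or of vehicle wells; lower values mean less growth of the strain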
Settings: S. cerevisiae deletion strains, growth OD, locus YLR058C, strain SHM2 (second series), hits give low values
In all, about 5,500 compounds went through this assay and about 2,000 (36%) were called active. Not shown: some 18% with an inconclusive outcome. The list shows a part of the results.
Give the figure by itself; no unit, no explanation.

compound=CC(=O)NC(=O)/C(C#N)=C/N1CCN(Cc2ccccc2)CC1 measured_endpoint="normalized growth" reported_result=0.988
compound=COc1cccc(Nc2nc3ccccc3s2)c1 measured_endpoint="normalized growth" reported_result=0.914
compound="CNS(=O)(=O)c1cc(Br)ccc1S(=O)c1ccccc1C(=O)O (stereo unspecified)" measured_endpoint="normalized growth" reported_result=0.992

q: Name the recorded normalized growth for `O=C(O)c1nccnc1C(=O)O` .
a: 1.01

q: Record: `COc1cccc(NC(N)=S)c1`
a: 1.03

q: Record: `COC(=O)CSCCc1nc(-c2ccc([N+](=O)[O-])cc2)cs1`
a: 0.964

q: Record: `NC(=S)c1ccc(Oc2ccc(Cl)cc2)nc1`
a: 0.0563

q: Record: `N#Cc1sccc1Br`
a: 0.991

q: Record: `O=C(Nc1cccnc1)c1cccc(Cl)c1Cl`
a: 1

q: Record: `CC1=NN(c2cccc(S(N)(=O)=O)c2)C(=O)C1`
a: 0.998

q: Record: `CCC(=O)Nc1cc(OC)cc(OC)c1`
a: 1.01

====

Assay: chemical genetic growth profiling, strain panel (AID 1159580);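 note: tested at 20 µM; growth read once vehicle control cultures reached saturation at 30 °C; 1 = growth at the plate median or of vehicle wells; lower values mean less growth of the strain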
Details: S. cerevisiae deletion strains, growth OD, locus YMR223W, strain ubp8, hits give low values
The campaign covered roughly 5,500 compounds. About 2,000 (36%) were called active. Another 18% or so got no clear call; they are omitted. The list shows a part of the results.
measured_endpoint: normalized growth
Give the figure by itself; no unit, no explanation.

Example entries and their recorded answers appear below.
molecule="Cc1onc(-c2ccccc2)c1C(=O)NC1C(=O)N2[C@@H]1SC(C)(C)[C@@H]2C(=O)O (stereo partly specified)" measured_endpoint="normalized growth" reported_result=0.975
molecule="C#C[C@]1(O)CCC2C3CCC4=Cc5oncc5C[C@]4(C)C3CC[C@@]21C (stereo partly specified)" measured_endpoint="normalized growth" reported_result=0.953

q: Name the recorded normalized growth for `O=c1c(O)c(-c2ccc(O)c(O)c2)oc2cc(O)ccc12` .
a: 0.893

q: Record: COc1cc2c(cc1OC)[C@@H]1C(=O)c3ccc4c(c3O[C@@H]1CO2)CC(C(C)C)O4 (stereo partly specified)
a: 1

q: Record: `CCN(CC)CCNC(=O)c1cc(Cl)c(N)cc1OC`
a: 0.997

q: Record: `O=C(OC[C@H]1O[C@H](OC(=O)c2cc(O)c(O)c(OC(=O)c3cc(O)c(O)c(O)c3)c2)[C@H](OC(=O)c2cc(O)c(O)c(OC(=O)c3cc(O)c(O)c(O)c3)c2)[C@@H](OC(=O)c2cc(O)c(O)c(OC(=O)c3cc(O)c(O)c(O)c3)c2)[C@@H]1OC(=O)c1cc(O)c(O)c(OC(=O)c2cc(O)c(O)c(O)c2)c1)c1cc(O)c(O)c(OC(=O)c2cc(O)c(O)c(O)c2)c1`
a: 0.0998

q: Record: `CC(=O)Oc1cccc(C(=O)O)c1OC(C)=O`
a: 1.04

q: Record: CC1=CC(=O)C2=C(C)CC(O)C3C(C)C(=O)OC3C12 (stereo unspecified)
a: 0.99

q: Record: `COc1cc(/C=C/C=O)cc(OC)c1OC`
a: 1.01

q: Record: COP(=O)(OC)OC(Br)C(Cl)(Cl)Br (stereo unspecified)
a: 1

q: Record: `CN(C)CCc1c[nH]c2ccc(CS(=O)(=O)N3CCCC3)cc12`
a: 0.996

q: Record: C[C@]12CCC(=O)C=C1CCC1C2C(=O)C[C@@]2(C)C1CC[C@]2(O)C(=O)CO (stereo partly specified)
a: 0.977

q: Record: NC[C@H]1O[C@H](O[C@H]2C(O[C@@H]3O[C@H](CO)[C@@H](O)[C@H]3O)[C@@H](O)[C@H](N)C[C@@H]2N)[C@H](N)[C@@H](O)[C@@H]1O (stereo partly specified)
a: 1.01

q: Record: COC(=O)C[C@H]1C(C)(C)[C@@H](O)[C@@H]2CC3=C4C=C(OC)O[C@@H](c5ccoc5)[C@]4(C)CCC3[C@@]1(C)C2=O (stereo partly specified)
a: 0.976

q: Record: `CCCCc1nc(Cl)c(CO)n1Cc1ccc(-c2ccccc2-c2nn[nH]n2)cc1`
a: 1

q: Record: `CCCc1nc2c(C)cc(-c3nc4ccccc4n3C)cc2n1Cc1ccc(-c2ccccc2C(=O)O)cc1`
a: 1.03

q: Record: `NC[C@H]1O[C@H](O[C@H]2[C@H](O)[C@@H](O[C@H]3O[C@H](CO)[C@@H](O)[C@H](N)[C@H]3O)[C@H](N)C[C@@H]2N)[C@H](N)C[C@@H]1O`
a: 0.988

q: Record: CC(=O)[C@@]1(O)CCC2C3CCC4=CC(=O)CC[C@]4(C)C3CC[C@@]21C (stereo partly specified)
a: 0.995

q: Record: CC(=O)OCC(=O)[C@@]1(O)CCC2C3CCC4=CC(=O)CC[C@]4(C)C3[C@@H](O)C[C@@]21C (stereo partly specified)
a: 0.98

q: Record: `CN[C@@H]1[C@@H](O[C@H]2O[C@H](CO)[C@@H](N)[C@H](O)[C@H]2O)O[C@H]2C[C@@H](N)[C@H](O[C@H]3[C@H](O)[C@@H](O)[C@H](N)C[C@@H]3N)O[C@@H]2[C@@H]1O`
a: 0.913

q: Record: `Cc1cc(=O)n(-c2ccccc2)n1C`
a: 0.99

q: Record: CNC(Cc1c[nH]c2ccccc12)C(=O)O (stereo unspecified)
a: 0.972

====

Quick list: normalized growth per entry.
Test: chemical genetic growth profiling, strain panel (AID 1159580);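 note: tested at 20 µM; growth read once vehicle control cultures reached saturation at 30 °C; 1 = growth at the plate median or of vehicle wells; lower values mean less growth of the strain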
Conditions: S. cerevisiae deletion strains, growth OD, locus YOR070C, strain gyp1, hits give low values
The campaign covered roughly 5,500 compounds. About 2,000 (36%) were called active. Not shown: some 18% with an inconclusive outcome. The list shows a part of the results.
Give the figure by itself; no unit, no explanation.

compound="CC(=O)O[C@@H]1CC[C@]2(C)C3CC[C@]4(C)C(=O)CCC4C3CC[C@H]2C1 (some centres undefined)" measured_endpoint="normalized growth" reported_result=1
compound="COc1cc2c(cc1OC)[C@@]13CCN4CC5=CCOC6CC(=O)N2C1[C@H]6[C@H]5C[C@H]43 (some centres undefined)" measured_endpoint="normalized growth" reported_result=0.998
compound="CC(=O)OC1CCC2(C)C3CC(=O)C4(C)C(CC5OC6(CCC(C)CO6)[C@@H](C)C54)C3CC[C@H]2C1 (some centres undefined)" measured_endpoint="normalized growth" reported_result=0.993

API: the following record is the query input.
q: Name the recorded normalized growth for `O=C(CCc1ccc(O)cc1)c1c(O)cc(O)cc1O[C@@H]1O[C@H](CO)[C@@H](O)[C@H](O)[C@H]1O` .
a: 1

====

Assay: chemical genetic growth profiling, strain panel (AID 1159580);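 note: tested at 20 µM; growth read once vehicle control cultures reached saturation at 30 °C; 1 = growth at the plate median or of vehicle wells; lower values mean less growth of the strain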
Conditions: S. cerevisiae deletion strains, growth OD, locus YLR039C, strain RIC1
Screen size: about 5,500 compounds; about 2,000 (36%) were called active. About 18% were inconclusive and are not listed. No stated cut-off is given here; in the data, active means normalized growth mostly below about 0.91 (no sharp cut-off); inconclusive means no clear call, values can overlap the other calls; inactive means mostly above about 0.92. This is one part of the list.
Pick one: active, inactive

compound=CCOc1ccc(C(=O)c2ccc(O)c(O)c2O)cc1 assigned_category=inactive
compound="CC(=O)O[C@H]1CC[C@]2(C)C3CC(=O)[C@]4(C)C(C(C)=O)=CCC4C3CC[C@H]2C1 (some centres not stated)" assigned_category=inactive
compound=COc1ccc2c(c1OC)OC[C@@H](c1ccc(OC)c(OC)c1OC)C2 assigned_category=inactive
compound=COc1ccc(C(=O)c2ccc(O)cc2)c(O)c1O assigned_category=inactive
compound=CCOc1ccc(NC(C)=O)cc1 assigned_category=inactive

q: Returns: the outcome recorded for `CC(=O)[O][Hg][c]1ccccc1` in this assay.
a: active

q: Record: CC(=O)O[C@H]1CC[C@]2(C)C3CC[C@@]4(C)C(CC5O[C@@]6(CCC(C)CO6)[C@@H](C)C54)C3CC[C@@H]2C1 (some centres not stated)
a: inactive

q: Record: `CCC(=O)Nc1cc(OC)cc(OC)c1`
a: inactive

q: Record: `COc1cc(O)cc(OC)c1OC`
a: inactive

q: Record: `O=C(CCBr)N1CCN(C(=O)CCBr)CC1`
a: inactive

q: Record: NCC1OC(OC2C(CO)OC(OC3C(O)C(N)CC(N)C3OC3OC(CO)C(O)CC3N)C2O)C(N)C(O)C1OC1OC(CO)C(O)C(O)C1O (configuration not stated)
a: inactive

q: Record: `COc1cc2cc3c4cc(OC)c(OC)cc4cc[n+]3c(C)c2cc1OC`
a: inactive
